Test system: episomal HPV-16 DNA in W12-20850 cells
Test: W-12 cellular assay (episomal HPV-16 DNA, hybrid capture)
Format: cell-based, HPV16
Conditions: Human papillomavirus 16, 96 h; W12-20850 cells, four days incubation, episomal HPV-16 DNA quantified by hybrid capture, inhibition relative to untreated control cells; read-out: W-12
assay.readout: IC50 (nM)

{"columns": ["molecule", "IC50 (nM)"],
 "data": [
  ["CCCc1cnc(NC2CCCc3c2[nH]c2ccc(Br)cc32)nc1 (centres unmarked) [Example 28]", 15]
]}

P: COc1ccc(NC2CCCc3c2[nH]c2ccc(Cl)cc32)cc1 (centres unmarked) [Example 15]
Q: Clc1ccc(NC2CCCc3c2[nH]c2ccc(Br)cc32)cc1Cl (centres unmarked) [Example 51]
Please choose the item with the lower IC50 value from this pair: P and Q State your choice using its label.
P
(P: 10 nM, Q: 22 nM)

###

Catalogue of IC50 values
System: episomal HPV-16 DNA in W12-20850 cells
Test: W-12 cellular assay (episomal HPV-16 DNA, hybrid capture)
Assay type: cell-based, HPV16
Settings: Human papillomavirus 16, W12-20850, 96 h, read-out: W-12 (nM)
Structures can show the parent of a compound that is named as a salt.
# unit: nM | format: bare number

Solved entries (count: 4):
{"columns": ["compound", "IC50 / nM"],
 "data": [
  ["Brc1ccc2[nH]c3c(c2c1)CCCC3Nc1ccccn1 (centres unmarked) [Example 27, hydrochloride]", 37],
  ["FC(F)(F)c1ccc2[nH]c3c(c2c1)CCCC3Nc1ccccc1 (centres unmarked) [Example 43, hydrochloride]", 51],
  ["COc1cc(OC)nc(NC2CCCc3c2[nH]c2ccc(C)cc32)n1 (centres unmarked) [Example 31, hydrochloride]", 70],
  ["Brc1ccc2[nH]c3c(c2c1)CCCC3Nc1ncccn1 (centres unmarked) [Example 22, hydrochloride]", 97]
]}

Report IC50 for Cc1cc(C)nc(NC2CCCc3c2[nH]c2ccc(Br)cc32)n1 (centres unmarked) [Example 32, hydrochloride] please.
12

###

Test system: episomal HPV-16 DNA in W12-20850 cells
Experiment: W-12 cellular assay (episomal HPV-16 DNA, hybrid capture)
Format: cell-based, HPV16
Conditions: Human papillomavirus 16, 96 h; W12-20850 cells, four days incubation, episomal HPV-16 DNA quantified by hybrid capture, inhibition relative to untreated control cells; read-out: W-12
pIC50: −log10 of the molar value.
assay.readout: pIC50

Solved entries (count: 3):
{"columns": ["compound", "pIC50"],
 "data": [
  ["Brc1ccc2[nH]c3c(c2c1)CCCC3Nc1nc2ccccc2s1 (centres unmarked)", 7.14],
  ["COc1cc(OC)nc(NC2CCCc3c2[nH]c2ccc(Cl)cc32)n1 (centres unmarked)", 7.52],
  ["Fc1ccccc1NC1CCCc2c1[nH]c1ccc(Br)cc21 (centres unmarked)", 7.15]
]}

A: Clc1ccc2[nH]c3c(c2c1)CCCC3Nc1ncccn1 (centres unmarked)
B: Cc1ccc(NC2CCCc3c2[nH]c2ccc(Cl)cc32)cc1 (centres unmarked)
C: Brc1ccc2[nH]c3c(c2c1)CCCC3Nc1ccccc1 (centres unmarked)
D: Brc1ccc2[nH]c3c(c2c1)CCCC3Nc1ccc2[nH]ccc2c1 (centres unmarked)
Order by pIC50, ascending. Your task in answering is to list the labels in the requested order.
D, A, B, C
(D: 6.95, A: 7.36, B: 7.72, C: 8.00)

P: N#Cc1ccc(NC2CCCc3c2[nH]c2ccc(Br)cc32)nc1 (centres unmarked)
Q: COc1ccccc1NC1CCCc2c1[nH]c1ccc(Br)cc21 (centres unmarked)
R: Cc1ccc2[nH]c3c(c2c1)CCCC3Nc1ncccn1 (centres unmarked)
Order by pIC50, ascending. Your task in answering is to list the labels in the requested order.
R, Q, P
(R: 6.60, Q: 7.24, P: 7.52)

I: Cc1ccnc(NC2CCCc3c2[nH]c2ccc(Cl)cc32)n1 (centres unmarked)
II: Cc1cc(C)nc(NC2CCCc3c2[nH]c2ccc(Cl)cc32)n1 (centres unmarked)
III: Clc1ccc(NC2CCCc3c2[nH]c2ccc(Cl)cc32)cc1 (centres unmarked)
Order the 3 compounds from highest to lowest pIC50. Your task in answering is to list the labels in the requested order.
III, I, II
(III: 7.85, I: 7.46, II: 7.21)

I: Fc1ccc(NC2CCCc3c2[nH]c2ccc(Cl)cc32)cc1 (centres unmarked)
II: c1cnc(NC2CCCc3c2[nH]c2ccccc32)nc1 (centres unmarked)
Returns: the argument ( I or II ) having the larger pIC50. State your choice using its label.
I
